- Target or test system: Mitogen-activated protein kinase 14 (Homo sapiens, UniProt Q16539)
- Sequence (Q16539 whole entry): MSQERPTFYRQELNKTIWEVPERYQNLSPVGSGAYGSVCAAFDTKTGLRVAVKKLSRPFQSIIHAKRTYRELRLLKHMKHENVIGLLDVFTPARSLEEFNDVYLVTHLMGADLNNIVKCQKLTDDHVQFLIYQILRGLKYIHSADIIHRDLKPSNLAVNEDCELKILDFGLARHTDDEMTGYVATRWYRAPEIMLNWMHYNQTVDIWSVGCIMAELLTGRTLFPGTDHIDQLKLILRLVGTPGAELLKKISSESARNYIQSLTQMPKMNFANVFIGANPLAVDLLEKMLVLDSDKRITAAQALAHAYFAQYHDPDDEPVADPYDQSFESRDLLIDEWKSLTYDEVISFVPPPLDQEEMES
- Assay notes: Inhibition of SAPK2a/p38-alpha
Parameter measured: IC50 (nM)
Express the result in nM but write the number alone.

Reported IC50 for Cc1ccc(NC(=O)c2cccc(N(C)C)c2)cc1NC(=O)c1ccc(O)cc1 : what is it?
2000

* * *

- Assay notes: Inhibition of GSK3
Parameter measured: pIC50
Answer as the number alone; pIC50 is minus log10 of concentration in mol/L.

Reported pIC50 for CCCCc1c(-c2ccc(O)cc2)[nH]c2nccnc12 : what is it?
6.30

* * *

Hi! I'm sharing some ΔTm results obtained with Cyclin-dependent kinase 16 (Homo sapiens) (UniProt Q00536).
Sequence (Q00536 whole entry): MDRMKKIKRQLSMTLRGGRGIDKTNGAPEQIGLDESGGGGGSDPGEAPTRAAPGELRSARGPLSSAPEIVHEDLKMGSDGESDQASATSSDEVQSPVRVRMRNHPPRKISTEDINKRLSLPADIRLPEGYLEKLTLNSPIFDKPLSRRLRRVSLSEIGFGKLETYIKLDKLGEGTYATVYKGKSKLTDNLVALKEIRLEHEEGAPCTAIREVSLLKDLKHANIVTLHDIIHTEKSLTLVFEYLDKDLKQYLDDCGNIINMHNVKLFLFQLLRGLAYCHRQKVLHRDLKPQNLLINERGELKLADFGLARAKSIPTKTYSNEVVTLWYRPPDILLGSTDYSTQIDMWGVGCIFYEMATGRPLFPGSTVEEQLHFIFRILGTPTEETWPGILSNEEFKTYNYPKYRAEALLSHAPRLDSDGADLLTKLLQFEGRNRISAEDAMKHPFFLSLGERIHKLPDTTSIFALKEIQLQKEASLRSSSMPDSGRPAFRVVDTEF
Express the result in °C but write the number alone.

# annotated cases, reported ΔTm shown
[
  {
    "Compound": "O=C1NC(=O)c2c1c1c3ccccc3[nH]c1n1cncc21 [ISOGRANULATIMIDE]",
    "ΔTm [°C]": 3.1
  },
  {
    "Compound": "CCCCc1c(-c2ccc(O)cc2)[nH]c2nccnc12 [ALOISINE A]",
    "ΔTm [°C]": -0.5
  }
]

Missing value: ΔTm, Cyclin-dependent kinase 16 (Homo sapiens) (UniProt Q00536), entry O=C1Nc2ccc(S(=O)(=O)O)cc2/C1=C1/Nc2ccccc2/C1=N\O . Fill in?
5.9

Missing value: ΔTm, Cyclin-dependent kinase 16 (Homo sapiens) (UniProt Q00536), entry NCCNS(=O)(=O)c1cccc2c(Cl)cccc12 . Fill in?
-0.1

Missing value: ΔTm, Cyclin-dependent kinase 16 (Homo sapiens) (UniProt Q00536), entry Cc1[nH]c(/C=C2\C(=O)Nc3ccc(S(=O)(=O)N(C)c4cccc(Cl)c4)cc32)c(C)c1C(=O)N1CCN(C)CC1 . Fill in?
-0.6
